List of Kd tested on Tyrosine-protein kinase ABL1 (Homo sapiens, UniProt P00519). Also: in the data inactive means no Kd found up to 30 µM.
Sequence (P00519 whole entry): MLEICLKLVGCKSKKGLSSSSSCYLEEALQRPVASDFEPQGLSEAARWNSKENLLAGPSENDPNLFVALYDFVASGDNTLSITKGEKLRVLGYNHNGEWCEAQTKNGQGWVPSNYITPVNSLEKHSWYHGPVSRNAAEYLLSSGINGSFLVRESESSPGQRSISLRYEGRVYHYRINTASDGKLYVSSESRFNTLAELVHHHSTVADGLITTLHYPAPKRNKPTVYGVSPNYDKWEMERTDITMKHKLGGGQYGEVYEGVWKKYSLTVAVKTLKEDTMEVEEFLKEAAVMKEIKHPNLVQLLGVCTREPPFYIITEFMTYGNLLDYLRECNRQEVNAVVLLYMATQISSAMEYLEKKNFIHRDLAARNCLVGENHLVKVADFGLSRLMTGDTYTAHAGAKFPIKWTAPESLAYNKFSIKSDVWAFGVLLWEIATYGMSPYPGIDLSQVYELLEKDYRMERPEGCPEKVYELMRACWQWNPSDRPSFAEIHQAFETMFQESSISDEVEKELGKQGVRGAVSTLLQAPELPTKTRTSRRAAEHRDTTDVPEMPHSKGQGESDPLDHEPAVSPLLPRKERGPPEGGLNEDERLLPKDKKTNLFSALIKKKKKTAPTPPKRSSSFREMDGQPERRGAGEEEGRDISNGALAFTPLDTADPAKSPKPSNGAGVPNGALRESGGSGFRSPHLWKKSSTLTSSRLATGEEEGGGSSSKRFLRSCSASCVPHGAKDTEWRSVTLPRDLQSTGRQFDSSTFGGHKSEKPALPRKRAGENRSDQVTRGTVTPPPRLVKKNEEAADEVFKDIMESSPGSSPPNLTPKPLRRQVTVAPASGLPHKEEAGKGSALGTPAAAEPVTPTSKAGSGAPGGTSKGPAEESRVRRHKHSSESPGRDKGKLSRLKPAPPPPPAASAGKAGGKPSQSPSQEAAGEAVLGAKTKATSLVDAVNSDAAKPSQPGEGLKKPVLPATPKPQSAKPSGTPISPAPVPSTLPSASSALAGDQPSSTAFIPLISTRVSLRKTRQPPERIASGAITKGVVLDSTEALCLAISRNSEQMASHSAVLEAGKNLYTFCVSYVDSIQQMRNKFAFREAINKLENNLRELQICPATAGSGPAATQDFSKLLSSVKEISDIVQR
Activity calls are given as the source filed them.

In [3]: df
Out[3]:
                                   molecule  observable            reported
0  C[C@@H]1CN(Cc2ccc(F)cc2)[C@@H](C)CN1C(=O)c1cc2c(C(=O)C(=O)N(C)C)cn(C)c2cc1Cl [TALMAPIMOD]          Kd  > 30 µM (inactive)
1  COc1cc(CCc2cc(NC(=O)c3ccc(N4C[C@@H](C)N[C@@H](C)C4)cc3)n[nH]2)cc(OC)c1 [AZD-4547]          Kd  > 30 µM (inactive)
2  CCN1CCN(Cc2ccc(-c3cc4c(N[C@H](C)c5ccccc5)ncnc4[nH]3)cc2)CC1 [AEE-788]          Kd    1.09 µM (active)
3  CNS(=O)(=O)Nc1nccc(Cc2c(C)c3ccc(Oc4ncccn4)cc3oc2=O)c1F [AVUTOMETINIB]          Kd  > 30 µM (inactive)

// below: Kd requested for another molecule
Which value of Kd has been reported for Cn1cc(-c2ccc3nnc(C(F)(F)c4ccc5ncccc5c4)n3n2)cn1 [JNJ-38877605] in the records? > 30 µM (inactive)

----------
- target_under_test: Dual specificity protein kinase CLK1 (Homo sapiens); also: in the data inactive means no Kd found up to 30 µM
- Sequence (P49759 whole entry): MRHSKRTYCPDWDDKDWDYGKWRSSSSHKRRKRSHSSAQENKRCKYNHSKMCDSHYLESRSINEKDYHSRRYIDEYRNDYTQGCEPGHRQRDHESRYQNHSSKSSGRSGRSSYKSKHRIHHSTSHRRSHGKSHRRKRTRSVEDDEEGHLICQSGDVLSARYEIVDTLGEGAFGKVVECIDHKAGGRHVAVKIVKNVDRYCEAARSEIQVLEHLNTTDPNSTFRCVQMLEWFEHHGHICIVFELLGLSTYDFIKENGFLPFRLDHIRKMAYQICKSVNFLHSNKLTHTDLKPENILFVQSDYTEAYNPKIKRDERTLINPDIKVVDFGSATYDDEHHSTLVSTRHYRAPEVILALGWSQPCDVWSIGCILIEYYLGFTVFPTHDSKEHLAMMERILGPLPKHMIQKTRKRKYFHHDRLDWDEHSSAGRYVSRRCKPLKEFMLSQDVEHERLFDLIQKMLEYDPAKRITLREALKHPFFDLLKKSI
Active and inactive are the calls of the source.
Valid outcomes are listed here; reply with one: Yes (active), No (inactive)

Here are 2 compounds together with their reported answers.
compound	group
COc1cc(OC)c(/C=C/S(=O)(=O)Cc2ccc(OC)c(NCC(=O)O)c2)c(OC)c1 [RIGOSERTIB]	No
Cc1ccc(NC(=O)c2ccc(CN3CC[C@H](N(C)C)C3)c(C(F)(F)F)c2)cc1Nc1nccc(-c2cncnc2)n1 [BAFETINIB]	No

Test call, this compound: CO[C@H]1C[C@@H]2CC[C@@H](C)[C@@](O)(O2)C(=O)C(=O)N2CCCC[C@H]2C(=O)O[C@H]([C@H](C)C[C@@H]2CC[C@@H](OCCO)[C@H](OC)C2)CC(=O)[C@H](C)/C=C(\C)[C@@H](O)[C@@H](OC)C(=O)[C@H](C)C[C@H](C)/C=C/C=C/C=C/1C [EVEROLIMUS] No

Another compound: COCCNCc1ccc(-c2cc3nccc(Oc4ccc(NC(=S)NC(=O)Cc5ccc(F)cc5)cc4F)c3s2)nc1 [GLESATINIB] No

Another compound: CNC(=O)CN1CCC(Oc2cc3c(Nc4cccc(Cl)c4F)ncnc3cc2OC)CC1 [SAPITINIB] No

Another compound: O=C1NC(=O)/C(=C/c2ccc3nccc(-c4ccncc4)c3c2)S1 [GSK-1059615] Yes

Another compound: "CN1CC[C@@H](c2c(O)cc(O)c3c(=O)cc(-c4ccccc4Cl)oc23)[C@@H]1CO" No

Another compound: CCn1c(=O)c(-c2cc[nH]n2)cc2c(C)nc(N)nc21 [VOXTALISIB] No

Another compound: Cc1cc2c(F)c(Oc3ncnn4cc(OC[C@@H](C)OC(=O)[C@H](C)N)c(C)c34)ccc2[nH]1 [BRIVANIB ALANINATE] No

Another compound: O=C(c1ccc(F)c(F)c1Nc1ccc(I)cc1F)N1CC(O)([C@@H]2CCCCN2)C1 [COBIMETINIB] No

Another compound: CNC(=O)c1ccc(-c2cnc3ncc(Cc4ccc5ncccc5c4)n3n2)cc1F [CAPMATINIB] No

Another compound: CNC(=O)c1cc(Oc2ccc(NC(=O)Nc3ccc(Cl)c(C(F)(F)F)c3)c(F)c2)ccn1 [REGORAFENIB] Yes

----------
- target_under_test: MAP kinase-activated protein kinase 5 (Homo sapiens); also: in the data inactive means no Kd found up to 30 µM
- Sequence (Q8IW41 whole entry): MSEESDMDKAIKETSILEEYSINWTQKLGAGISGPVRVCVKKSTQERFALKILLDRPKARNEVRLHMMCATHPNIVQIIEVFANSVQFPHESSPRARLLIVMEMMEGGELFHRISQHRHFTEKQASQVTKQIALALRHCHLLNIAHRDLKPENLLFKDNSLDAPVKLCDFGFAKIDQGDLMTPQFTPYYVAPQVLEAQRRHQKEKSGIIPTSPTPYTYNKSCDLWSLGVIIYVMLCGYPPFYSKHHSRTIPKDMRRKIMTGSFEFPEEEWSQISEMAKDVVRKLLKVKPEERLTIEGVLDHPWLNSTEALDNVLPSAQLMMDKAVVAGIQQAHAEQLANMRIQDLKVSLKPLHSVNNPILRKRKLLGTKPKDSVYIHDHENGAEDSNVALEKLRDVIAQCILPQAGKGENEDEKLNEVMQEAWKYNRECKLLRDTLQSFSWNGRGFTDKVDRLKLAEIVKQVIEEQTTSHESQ
Active and inactive are the calls of the source.
observable: Kd

Some molecules with known Kd results, for comparison:
In [3]: df
Out[3]:
                                   molecule                         target_under_test  observable            reported
0  Cn1ncc(Cl)c1-c1cc(C(=O)N[C@H](CN)Cc2cccc(F)c2)sc1Cl  MAP kinase-activated protein kinase 5 (Homo sapiens)          Kd  > 30 µM (inactive)
1  Cc1ccc(S(=O)(=O)Nc2nc3ccccc3nc2Nc2ccc3nsnc3c2)cc1  MAP kinase-activated protein kinase 5 (Homo sapiens)          Kd  > 30 µM (inactive)
2  CCCS(=O)(=O)Nc1ccc(F)c(C(=O)c2c[nH]c3ncc(-c4ccc(Cl)cc4)cc23)c1F  MAP kinase-activated protein kinase 5 (Homo sapiens)          Kd  > 30 µM (inactive)

Which value of Kd has been reported for "O=C(O)[C@]1(Cc2cccc(Nc3nccs3)n2)CC[C@@H](Oc2cccc(Cl)c2F)CC1" in the records? > 30 µM (inactive)

Another molecule: "Cc1ccc(NC(=O)c2ccc(CN3CC[C@H](N(C)C)C3)c(C(F)(F)F)c2)cc1Nc1nccc(-c2cncnc2)n1" > 30 µM (inactive)

Another molecule: "C[C@@H]1CN(Cc2ccc(F)cc2)[C@@H](C)CN1C(=O)c1cc2c(C(=O)C(=O)N(C)C)cn(C)c2cc1Cl" > 30 µM (inactive)

Another molecule: "O=C1NC(=O)/C(=C/c2ccc3nccc(-c4ccncc4)c3c2)S1" > 30 µM (inactive)

Another molecule: O=C(Nc1ccc(-c2ccnc(Nc3ccc(N4CCOCC4)cc3)n2)cc1)C1CCCN1 (stereo not drawn) > 30 µM (inactive)

----------
- target_under_test: Ras-related protein Rab-27A (Homo sapiens, UniProt P51159); also: in the data inactive means no Kd found up to 30 µM
- Sequence (P51159 whole entry): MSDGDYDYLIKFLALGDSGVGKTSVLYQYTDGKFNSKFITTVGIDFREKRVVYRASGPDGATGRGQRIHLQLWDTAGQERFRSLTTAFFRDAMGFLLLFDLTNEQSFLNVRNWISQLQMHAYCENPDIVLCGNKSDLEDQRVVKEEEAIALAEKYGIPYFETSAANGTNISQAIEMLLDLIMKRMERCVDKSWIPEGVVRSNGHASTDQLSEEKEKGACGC
Activity calls are given as the source filed them.
observable: Kd

smiles_representation	Kd
O=C(O)[C@]1(Cc2cccc(Nc3nccs3)n2)CC[C@@H](Oc2cccc(Cl)c2F)CC1	> 30 µM (inactive)
CNC(=O)CN1CCC(Oc2cc3c(Nc4cccc(Cl)c4F)ncnc3cc2OC)CC1	> 30 µM (inactive)
O=C(Nc1cccc(Cl)c1)Nc1ncc(CCNc2ncnc3ccsc23)s1	> 30 µM (inactive)
O=C1NC(=O)/C(=C/c2ccc3nccc(-c4ccncc4)c3c2)S1	> 30 µM (inactive)
CO[C@H]1C[C@@H]2CC[C@@H](C)[C@@](O)(O2)C(=O)C(=O)N2CCCC[C@H]2C(=O)O[C@H]([C@H](C)C[C@@H]2CC[C@@H](OCCO)[C@H](OC)C2)CC(=O)[C@H](C)/C=C(\C)[C@@H](O)[C@@H](OC)C(=O)[C@H](C)C[C@H](C)/C=C/C=C/C=C/1C	> 30 µM (inactive)

Which value of Kd has been reported for "Cc1cc(Nc2cc(N3CCN(C)CC3)nc(/C=C/c3ccccc3)n2)n[nH]1" in the records? > 30 µM (inactive)

Another molecule: "CN1CC[C@@H](c2c(O)cc(O)c3c(=O)cc(-c4ccccc4Cl)oc23)[C@@H]1CO" > 30 µM (inactive)

----------
- target_under_test: Serine/threonine-protein kinase Nek9 (Homo sapiens); also: in the data inactive means no Kd found up to 30 µM
- Sequence (Q8TD19 whole entry): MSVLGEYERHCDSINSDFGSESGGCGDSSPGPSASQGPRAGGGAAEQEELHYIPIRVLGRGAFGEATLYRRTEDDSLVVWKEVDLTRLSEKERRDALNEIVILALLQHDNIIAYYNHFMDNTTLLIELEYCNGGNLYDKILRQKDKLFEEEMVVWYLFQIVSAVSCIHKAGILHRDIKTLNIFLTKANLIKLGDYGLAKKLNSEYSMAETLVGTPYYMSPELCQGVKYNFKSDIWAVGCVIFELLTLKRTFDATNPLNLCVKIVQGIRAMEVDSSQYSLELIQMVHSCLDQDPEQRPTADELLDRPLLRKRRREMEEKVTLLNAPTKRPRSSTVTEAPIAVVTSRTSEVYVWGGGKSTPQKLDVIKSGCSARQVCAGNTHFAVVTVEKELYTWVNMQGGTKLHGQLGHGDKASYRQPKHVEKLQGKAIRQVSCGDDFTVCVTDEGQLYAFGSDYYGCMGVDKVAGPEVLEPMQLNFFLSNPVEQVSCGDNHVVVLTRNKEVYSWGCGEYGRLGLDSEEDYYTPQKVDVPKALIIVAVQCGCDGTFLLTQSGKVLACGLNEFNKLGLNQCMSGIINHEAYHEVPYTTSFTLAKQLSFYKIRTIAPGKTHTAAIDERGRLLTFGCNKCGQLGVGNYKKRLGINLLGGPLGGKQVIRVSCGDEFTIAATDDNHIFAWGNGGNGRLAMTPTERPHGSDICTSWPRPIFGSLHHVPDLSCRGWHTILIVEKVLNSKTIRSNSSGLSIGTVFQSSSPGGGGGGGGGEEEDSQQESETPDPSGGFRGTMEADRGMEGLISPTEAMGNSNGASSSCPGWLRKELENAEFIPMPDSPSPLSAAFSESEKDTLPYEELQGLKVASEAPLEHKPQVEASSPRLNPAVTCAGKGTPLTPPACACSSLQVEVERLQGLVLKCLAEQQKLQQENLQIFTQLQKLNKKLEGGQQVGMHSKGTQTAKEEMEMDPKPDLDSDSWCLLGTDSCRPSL
Active and inactive are the calls of the source.
Valid outcomes are listed here; reply with one: active, inactive

Here are 2 molecules together with their reported answers.
>>> df
                      smiles_representation                         target_under_test     group
0   CCn1c(=O)c(-c2cc[nH]n2)cc2c(C)nc(N)nc21  Serine/threonine-protein kinase Nek9 (Homo sapiens)  inactive
1  Cn1ncc(Cl)c1-c1cc(C(=O)N[C@H](CN)Cc2cccc(F)c2)sc1Cl  Serine/threonine-protein kinase Nek9 (Homo sapiens)  inactive

Test call, this molecule: "CNS(=O)(=O)Nc1nccc(Cc2c(C)c3ccc(Oc4ncccn4)cc3oc2=O)c1F" inactive

Another molecule: "COc1ccc(-c2ccc3c(N4CCOC[C@@H]4C)nc(N4CCOC[C@@H]4C)nc3n2)cc1CO" inactive

Another molecule: "C1=C/COCc2cc(ccc2OCCN2CCCC2)Nc2nccc(n2)-c2cccc(c2)COC/1" active

Another molecule: "Cc1nc(N)sc1-c1ccnc(Nc2ccc(N3CCOCC3)cc2)n1" active

Where these numbers come from: ChEMBL document CHEMBL3991601
